Listing: inhibition of selected compounds
# assayed-target: Glucose transporter (Leishmania mexicana)
# experiment: ST_JUDE_LEISH: Cytotoxicity at 2uM final concentration against transgenic Leishmania Mexicana promastigotes LmGT2 that are glucose transport deficient and complemented with the L. Mexicana glucose transporter 2. Activity is measured by DNA content using SYBR green in vitro
# Type: functional

{"columns": ["smi", "assayed-target", "inhibition / %"],
 "data": [
  ["CC(C)CNC(=O)c1ccnc(-c2ccc(CNC3Cc4ccccc4C3)cc2)c1", "Glucose transporter (Leishmania mexicana)", -1.63],
  ["COc1cccc2cc(C(=O)N[C@@H](CC(C)C)C(=O)N[C@H](C=NN3CC(=O)NC3=O)CC(C)C)oc12", "Glucose transporter (Leishmania mexicana)", 2.23],
  ["COc1ccc(Nc2ncc3c(-c4cccc(NC(=O)CC(C)C)c4)c[nH]c3n2)cc1OC", "Glucose transporter (Leishmania mexicana)", 6.64],
  ["Cc1cc(C)c2ncc(C(=O)O)c(O)c2c1", "Glucose transporter (Leishmania mexicana)", 3.9],
  ["COc1ccc(NC(=O)c2cccc(Br)c2)cc1N1CCN(CCCCCCCN2CCN(c3cc(NC(=O)c4cccc(Br)c4)ccc3OC)CC2)CC1", "Glucose transporter (Leishmania mexicana)", 0.78]
]}

---

Below is a list of entries, each paired with its recorded inhibition value.
# assayed-target: Solute carrier family 2, facilitated glucose transporter member 1 (Homo sapiens) (UniProt P11166)
# Sequence (P11166 whole entry): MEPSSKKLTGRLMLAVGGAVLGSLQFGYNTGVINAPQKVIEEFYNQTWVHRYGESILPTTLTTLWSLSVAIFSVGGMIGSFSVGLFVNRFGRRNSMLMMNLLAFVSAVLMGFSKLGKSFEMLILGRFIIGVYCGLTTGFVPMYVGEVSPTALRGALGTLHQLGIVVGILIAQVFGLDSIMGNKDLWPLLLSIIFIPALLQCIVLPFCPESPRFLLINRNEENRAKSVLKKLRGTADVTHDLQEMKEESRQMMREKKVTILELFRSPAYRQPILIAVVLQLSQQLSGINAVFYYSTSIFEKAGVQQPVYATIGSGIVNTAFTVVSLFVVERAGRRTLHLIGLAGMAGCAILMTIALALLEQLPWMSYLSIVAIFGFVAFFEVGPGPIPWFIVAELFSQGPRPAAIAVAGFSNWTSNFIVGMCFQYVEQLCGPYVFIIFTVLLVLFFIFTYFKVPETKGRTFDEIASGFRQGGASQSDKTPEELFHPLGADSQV
# experiment: ST_JUDE_LEISH: Cytotoxicity at 2uM final concentration against transgenic Leishmania Mexicana promastigotes LmGLUT1 that are glucose transport deficient and complemented with the human glucose transporter GLUT1. Activity is measured by DNA content using SYBR green in vitro
# Type: functional
measured-property: inhibition (%)

{"columns": ["molecule", "output-unit", "measurement"],
 "data": [
  ["CO/C(=C\\C=C\\c1cc2cc(Cl)c(Cl)cc2[nH]1)C(=O)NCCN1CCCCC1", "%", 0.85],
  ["N#Cc1cccc(Nc2nccc(NCC(O)c3cccc(C(F)(F)F)c3)n2)c1 (stereo not given)", "%", 4.68],
  ["CC(=O)CC(=O)N1CCN(c2ccccc2)CC1", "%", -0.36],
  ["CCCCSc1ccc2nc(-c3c[nH]c4ccc(C#N)cc34)cn2c1", "%", -0.49],
  ["OCCN1CCN(Cc2ccc(-c3cccc(-c4nc5cc(C(F)(F)F)ccc5[nH]4)c3)cc2)CC1", "%", 7.65]
]}

---

# assayed-target: Glucose transporter (Leishmania mexicana)
# experiment: ST_JUDE_LEISH: Cytotoxicity at 2uM final concentration against transgenic Leishmania Mexicana promastigotes LmGT2 that are glucose transport deficient and complemented with the L. Mexicana glucose transporter 2. Activity is measured by DNA content using SYBR green in vitro
# Format: functional
A collection of compounds and their measured inhibition
measured-property: inhibition (%)

{"columns": ["compound", "assayed-target", "measurement"],
 "data": [
  ["COc1ccc(C(=O)Nc2cc(Br)c3c(c2)CNCC3)cc1C(F)(F)F", "Glucose transporter (Leishmania mexicana)", 1.37],
  ["CCc1sc(N2CCN(C)CC2)nc1C(=O)NCCc1ccc(Cl)c(Cl)c1", "Glucose transporter (Leishmania mexicana)", 3.6],
  ["OC1CCCN(Cc2cccc(-c3ccc(-c4nc5cc(C(F)(F)F)ccc5[nH]4)cc3)c2)C1 (stereo not given)", "Glucose transporter (Leishmania mexicana)", 3.54],
  ["CN(CCCNc1ccc(C(=O)Nc2ccc(C(F)(F)F)cc2)cc1[N+](=O)[O-])Cc1ccccc1", "Glucose transporter (Leishmania mexicana)", -3.45],
  ["COc1ccc2nc(-c3cccc(C)n3)nc(Nc3ccncc3)c2c1", "Glucose transporter (Leishmania mexicana)", 2.21],
  ["Clc1ccc(-n2cnc3c(Nc4ccc(Oc5ccccc5)cc4)ncnc32)cc1Cl", "Glucose transporter (Leishmania mexicana)", -1.22],
  ["Cc1cc(-c2ccc3occ(CCN)c3c2)cnc1N", "Glucose transporter (Leishmania mexicana)", 1.13],
  ["CC(C)=CCc1c(-c2ccc(O)cc2O)oc2c3c(cc(O)c2c1=O)OC(C)(C)C=C3", "Glucose transporter (Leishmania mexicana)", 6.57],
  ["COc1ccc(-c2nc3cccnc3n2CC(=O)Nc2c(C)cc(C)cc2C)c(OC)c1", "Glucose transporter (Leishmania mexicana)", 1.82],
  ["COc1ccc2c(=NN=Cc3ccc(F)cc3)cc(C)[nH]c2c1", "Glucose transporter (Leishmania mexicana)", 11.6]
]}

---

Reported inhibition is given for each of the following molecules.
# assayed-target: Glucose transporter (Leishmania mexicana)
# experiment: ST_JUDE_LEISH: Cytotoxicity at 2uM final concentration against transgenic Leishmania Mexicana promastigotes LmGT2 that are glucose transport deficient and complemented with the L. Mexicana glucose transporter 2. Activity is measured by DNA content using SYBR green in vitro
# Type: functional

{"columns": ["molecule", "output-unit", "inhibition"],
 "data": [
  ["COc1ccc(NS(=O)(=O)c2ccccc2Br)cc1N1CCN(C)CC1", "%", 3.86],
  ["CN1CCC(N2CCN(CCOc3cc(NC(=O)/C=C/c4ccccc4Cl)ccc3Br)CC2)CC1", "%", -1.82],
  ["CN(C)CCN(C)C(=O)c1cc(-c2ccncc2)c(-c2ccc(Cl)c(O)c2)o1", "%", 6.77],
  ["COc1ccc2nccc([C@@H](O)CN3CCC(NC(=O)/C=C/c4ccc5ccccc5n4)CC3)c2c1", "%", 7.42],
  ["CCOc1c(CCNCCCCNCCc2ccc3ccccc3c2OCC)ccc2ccccc12", "%", 111],
  ["CC(C)(C)c1ccc2[nH]c(-c3ccc(/C=C/C(=O)NC4CCN(Cc5ccccc5)CC4)cc3)nc2c1", "%", 7.5],
  ["CCOC(=O)c1cccc(NC(=N)Nc2nc(C)cc(NCCc3ccccc3)n2)c1", "%", 5.39],
  ["CCc1nc(N)nc(N)c1-c1ccccc1", "%", 3.69],
  ["CN(C(=O)C(C)(C)Oc1ccc(Cl)cc1)C1CCN(CCCCCNC(=O)/C=C/c2ccc(Cl)c(Cl)c2)CC1", "%", 0.52],
  ["Cc1cc(N2CCC(NS(=O)(=O)c3cccc4cccnc34)CC2)nc(Nc2cccc(C#N)c2)n1", "%", 44.4],
  ["Cc1cc(N[C@@H](Cc2ccccc2)C(=O)Nc2ccccc2)nc(NCCc2ccc(F)cc2)n1", "%", 1.86],
  ["CC(C)CC(NC(=O)c1cc2ccccc2s1)C(=O)N1CCCCCC1c1ccc(C(C)(C)C)cc1 (centres undefined)", "%", -0.81],
  ["O=C(Nc1cccc(C(F)(F)F)c1)NC1CCN(c2ccnc3cc(Cl)ccc23)C1 (centres undefined)", "%", 0.93],
  ["NC(=O)c1ccsc1NC(=O)CNC(c1ccccc1)c1ccc(Cl)cc1 (centres undefined)", "%", 1.74],
  ["O=C(/C=C/c1ccc(Cl)c(Cl)c1)N1CCC(CN2CCC(c3nc4ccccc4n3CCCO)CC2)CC1", "%", 5.85],
  ["CCNc1cc(C(=O)N[C@@H](Cc2ccccc2)[C@H](O)CNCc2cc(OC)cc(OC)c2)cc(N2CCCS2(=O)=O)c1", "%", -0.47],
  ["O=C(N[C@@H](CC1CCCCC1)C(=O)NC1CCCCCC1)c1ccc(O)c(-c2ccc(Cl)c(Cl)c2)c1", "%", 0.88],
  ["CCOc1cc(C(=O)NC2CCN(Cc3ccccc3)CC2)ccc1-c1nc2cc(Cl)c(Cl)cc2[nH]1", "%", -0.27],
  ["Cc1cc(N(C)C)nc(Nc2ccc(NC(=O)c3ccccc3Cl)cc2)n1", "%", -4.81]
]}

---

inhibition: recorded values
# assayed-target: Glucose transporter (Leishmania mexicana) (UniProt O61059)
# experiment: ST_JUDE_LEISH: Cytotoxicity at 2uM final concentration against transgenic Leishmania Mexicana promastigotes LmGT2 that are glucose transport deficient and complemented with the L. Mexicana glucose transporter 2. Activity is measured by DNA content using SYBR green in vitro
# Assay type: functional

{"columns": ["molecule", "inhibition, %"],
 "data": [
  ["Cc1cc2ccccc2n1CC(=O)N1CC(C(=O)N2CCCCC2)Oc2ccccc21 (stereo not drawn)", 2.89],
  ["Cc1cnc(Nc2cccnc2)nc1Nc1ccccc1C(=O)NC(C)C", 2.25],
  ["COc1ccc(C2CC(=O)C3=C(C2)NC(C)=C(C(=O)OC(C)C)C3c2cccc(O)c2)cc1OC (stereo not drawn)", 1.71],
  ["CC(C)c1cn2c3c(cc(C(=O)N[C@@H](Cc4ccccc4)[C@H](O)CNC4CCOCC4)cc13)N(C)S(=O)(=O)CC2", 3.22],
  ["CN1CCN(c2ccc(Nc3nccc(-c4cnn5ncccc45)n3)cc2Cl)CC1", 83.8],
  ["COc1cc(C2NCC3(CCOCC3)c3cc4c(cc32)OCCO4)cc(OC)c1OC (stereo not drawn)", 7.63],
  ["CS(=O)(=O)c1ccc2c(c1)CCN(CCC1CCC(NC(=O)C(=Cc3cccc(C#N)c3)c3ccc(-c4ccccc4)cc3)CC1)CC2 (stereo not drawn)", 1.15],
  ["CCNc1cc(C(=O)N[C@@H](Cc2ccc(F)c(F)c2)[C@H](O)CNC2CCCCC2)cc(N2CCCCS2(=O)=O)c1", 0.91],
  ["CCCN(CCC)S(=O)(=O)c1ccc(C(=O)N2CCC(C(=O)OCC)CC2)cc1", 5.48],
  ["O=C(Nc1ccc(Cl)cc1)N[C@H]1CCN(Cc2ccc(OCCCN3CCCCC3)cc2)C1", 0.1],
  ["O=C(Nc1ccc(F)cc1)N1CCCN(c2ccnc3cc(Cl)ccc23)CC1", 1.11],
  ["O=C(Nc1ccc(CCNCc2ccccc2)cc1)Nc1ccc(OC(F)(F)F)cc1", 0.49],
  ["FC(F)(F)c1ccc2[nH]c(-c3cccc(-c4ccc(CNCc5ccccc5)cc4)c3)nc2c1", -0.47],
  ["COc1ccc2c(=NN=Cc3cccc(F)c3)cc(C)[nH]c2c1", 1.95],
  ["C=CCn1c(SCC(=O)Nc2cc(C)ccc2OC)nc2sc(C)cc2c1=O", 2.13],
  ["Cc1cc2nc(-c3ccc(C(=O)NC4CCN(Cc5ccccc5)CC4)s3)[nH]c2cc1C", 2.98],
  ["Cc1cc(N(C)C)nc(Nc2ccc(NS(=O)(=O)c3ccccc3)cc2)n1", 5.82],
  ["CCCN(CCC)c1nn2c(=O)c(C(=O)N3CCN(Cc4ccccc4)CC3)cnc2s1", 2.14],
  ["Cc1ccc(NC(=O)NC2CCN(CCCCCNC(=O)/C=C/c3ccc(Cl)c(Cl)c3)CC2)cc1", -5.98],
  ["CCc1c[nH]c2c(N3CCCC3=O)cc(C(=O)N[C@@H](Cc3ccccc3)[C@H](O)CNC(C)(C)c3cccc(OC)c3)cc12", 1.9],
  ["CNCCNCc1cccc(-c2cccc(-c3nc4cc(C(F)(F)F)ccc4[nH]3)c2)c1", 0.13],
  ["CCOc1ccc(NC(=O)c2cn3nc(-c4ccc(OCC)cc4)cc3nc2C2CCNCC2)cc1", 3.37],
  ["CCC[C@@H]([C@@H](CC(C)C)C(=O)N[C@H](C(=O)Nc1nccs1)C(C)(C)SCCNC(=O)OCC)N(O)C=O", 3.58],
  ["CC1(C)NC(N)=NC(=N)N1OCc1cccc(Cl)c1Cl", 2.46],
  ["CNC(=O)c1ccccc1Nc1nc(Nc2ccc(C(=O)O)cc2)ncc1Cl", 1.39],
  ["Cn1cnc(CCNC(=O)c2cccc(-c3cccc(-c4nc5cc(C(F)(F)F)ccc5[nH]4)c3)c2)c1", -2.49],
  ["O=[N+]([O-])c1ccc(Oc2ccccc2CNCC2CCN(CC3CCCCC3)CC2)cc1", 7.15],
  ["O=C(Nc1cccc(-c2csc(-c3ccccc3)n2)c1)c1cccs1", 0.7],
  ["COc1ccc2nccc([C@@H](O)CN3CCC(NCc4cnc5snnc5c4)C(F)C3)c2c1 (stereo partly drawn)", 2.93],
  ["CCn1c(-c2nonc2N)nc2c(-c3cccc(NC(=O)Nc4ccccc4OC)c3)ncc(OCCCN)c21", 3.42],
  ["CC(CN1CCN(C)CC1)C(=O)Nc1ccc(-c2csc(-c3nc4ccccc4[nH]3)c2)cc1 (stereo not drawn)", 5.51],
  ["COc1ccc(C2C(C(=O)OC3CCCCC3)=C(C)NC3=C2C(=O)CCC3)cc1Br (stereo not drawn)", 1.36],
  ["CCS(=O)(=O)c1ccc(/C(=N/OC)c2ccc[nH]2)cc1", 0.42],
  ["CCCOc1c(CCNCCCCNCCc2ccc3ccccc3c2OCCC)ccc2ccccc12", 40.1],
  ["O=C(CNCC1CCCCC1)Nc1cc(C(F)(F)F)ccc1Cl", 1.07],
  ["O=C(Nc1cc(C(F)(F)F)cc(C(F)(F)F)c1)NC(CCCN1CCC2(CC1)OCc1ccccc12)c1ccc(Cl)c(Cl)c1 (stereo not drawn)", -0.66],
  ["Fc1ccc2[nH]c(-c3ccc(-c4cccc(CN5CCCCC5)c4)cc3)nc2c1", 1.72],
  ["CN1CC(c2ccccc2)c2cc(O)c(CN3CCCCC3)cc2CC1Cc1ccccc1 (stereo not drawn)", 6.78]
]}
